Let's look at some binders and their measured OD450.
studySystem: T1, human MSLN-R3-his protein (human, UniProt Q13421 487-598)
T1 construct: it is put last here; also called human MSLN-R3 protein; hMSLN-R3-his; not shown: His tag
T1 sequence (Q13421 495-606): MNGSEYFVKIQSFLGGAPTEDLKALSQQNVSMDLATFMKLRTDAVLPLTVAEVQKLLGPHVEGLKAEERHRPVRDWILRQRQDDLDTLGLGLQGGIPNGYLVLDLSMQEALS
assayProcedure: ELISA on coated antigen, no antibody (blank, column 'none')
Use OD as the unit, but write only the number.

Worked cases, answers included:
S009-F7.53.2 (antibody, human IgG1, kappa, V domains shown, Human-murine chimeric antibody, human IgG1 heavy and kappa light constant regions) VH: EVQLQQSGPELVKPGASVKIPCKTSGYTFTDYNMDWVKQSHGKSLEWIGDINPNTDGAIYNQKFQNKATLTVDKSSSTAYMELRSLTSEDTAVYYCTRRKLGRKFFDYWGQGTTLTVSS VL: QIVLTQSPAIMSASPGEQVTMTCSASSSVGYMNWYQQKPGSSPRLLIYDTSNLASGVPVHFSGSGSGTSYSLTISRMEAAFAATYYCQQWYVYPYTFGGGTKLEIKR; 0.06
S009-F7.67.12 (antibody, human IgG1, kappa, V domains shown, Human-murine chimeric antibody, human IgG1 heavy and kappa light constant regions) VH: QVQLQQPGTELVKPGASVRLSCRASGYSFSSYWMHWVKQRPGQGLEWLGNINPTTGDINYNEKFRNRATLAVDKSSTTAYLQLTSLTSEDSAVYFCVRHDGFLWGQGTTLTVSS VL: DIQMTQSPASLSASVGETVTITCRASENIYSYLAWYQQKQGKSPQLLVYYAKTLAEGVSSRFSGSGSGTQFSLKINSLQPEDFGTYYCQHQFGTPRTFGGGTKLEIRR; 0.07

Now turn to the next binder.
The recorded OD450 for entry S009-F7.30.5 (antibody, human IgG1, kappa, V domains shown, Human-murine chimeric antibody, human IgG1 heavy and kappa light constant regions) VH: QVQLQQPKTELVKPGASVKLSCKASGYIFTTYWMHWVKQRPGQGLEWIGNVNPSNGGTMYNEKFERRATLTVDKSSSTADMQLSSLTSEDSAVYYCVPHYIGSRPGFAYWGQGTLVTVSG VL: DIVMTQSQKFMSTSVGDRVSVTCKASQNVGTNVAWYQHKPGQSPKALLYSASYRYSGVPDRFTGSGSGTDFTLTITNVQSEDLAEYFCQQYNSYPLTFGGGTKLEIKR equals 0.09
